Listing of recorded logP by entry.
assay: Partition coefficient (logP); assay type: physicochemical; details: octanol/water
MEASURE: logP

1. OC(Cn1ccnc1)(c1ccc(Br)cc1)c1ccccc1Cl (stereo unspecified) | 3.87
2. OC(Cn1ccnc1)(c1ccccc1)c1ccc(Br)cc1 (stereo unspecified) | 3.35
3. OC(Cn1ccnc1)(c1ccc(Cl)cc1)c1ccc(-c2ccncc2)cc1 (stereo unspecified) | 3.27
4. OC(Cn1ccnc1)(c1cccc(Br)c1)c1ccc(F)cc1F (stereo unspecified) | 3.6
5. OC(Cn1ccnc1)(c1ccc(F)cc1)c1ccccc1-c1cccnc1 (stereo unspecified) | 3.26
6. OC(Cn1ccnc1)(c1ccc(F)cc1)c1ccccc1-c1ccncc1 (stereo unspecified) | 2.51
7. OC(Cn1ccnc1)(c1ccc(-c2ccncc2)cc1)c1ccccc1Cl (stereo unspecified) | 3.37
8. OC(CN1CCOCC1)(c1ccc(F)cc1)c1ccc(-c2ccncc2)cc1 (stereo unspecified) | 2.82
9. Cc1ccc(C(O)(Cn2ccnc2)c2ccc(Br)cc2)cc1 (stereo unspecified) | 3.55
10. OC(Cn1ccnc1)(c1ccc(F)cc1)c1cccc(-c2ccncc2)c1 (stereo unspecified) | 2.91
11. OCc1ccc(C(O)(Cn2ccnc2)c2ccc(-c3ccncc3)cc2)cc1 (stereo unspecified) | 2.4

----------
test: Partition coefficient (logP); type: physicochemical; details: octanol/water
Listing of recorded logP by entry.
MEASURE: logP

1) OC(Cn1ccnc1)(c1ccc(-c2ccccn2)cc1)c1ccc(F)cc1F (centres undefined) | 3.65
2) OC(Cn1ccnc1)(c1ccc(-c2ccncc2)cc1)c1ccc(F)cc1F (centres undefined) | 2.54
3) OC(Cn1cccc1)(c1ccc(F)cc1)c1ccc(-c2ccncc2)cc1 (centres undefined) | 2.35
4) OC(Cn1ccnc1)(c1ccc(Br)cc1)c1ccc(F)cc1F (centres undefined) | 3.44
5) OC(Cn1ccnc1)(c1ccc(F)cc1)c1ccc(Br)cc1 (centres undefined) | 3.42
6) OC(Cn1ccnc1)(c1ccc(F)cc1)c1cccc(-c2cccnc2)c1 (centres undefined) | 3.22
7) OC(Cn1cccn1)(c1ccc(F)cc1)c1ccc(-c2ccncc2)cc1 (centres undefined) | 2.14
8) COC(=O)c1ccc(C(O)(Cn2ccnc2)c2ccc(-c3ccncc3)cc2)cc1 (centres undefined) | 2.61
9) O=Cc1ccc(C(O)(Cn2ccnc2)c2ccc(-c3ccncc3)cc2)cc1 (centres undefined) | 2.38
10) CN(C)c1ccc(C(O)(Cn2ccnc2)c2ccc(-c3ccncc3)cc2)cc1 (centres undefined) | 3.29
11) OC(CN1CCCC1)(c1ccc(F)cc1)c1ccc(-c2ccncc2)cc1 (centres undefined) | 3.84
12) OC(Cn1ccnc1)(c1ccc(F)cc1)c1cccc(-c2ccccn2)c1 (centres undefined) | 3.34
13) Oc1ccc(C(O)(Cn2ccnc2)c2ccc(-c3ccncc3)cc2)cc1 (centres undefined) | 2.49
14) OC(Cn1cnc2ccccc21)(c1ccc(F)cc1)c1ccc(-c2ccncc2)cc1 (centres undefined) | 2.06
15) OC(Cn1ccnc1)(c1ccc(-c2ccncc2)cc1)c1ccc(C(F)(F)F)cc1 (centres undefined) | 3.11
16) OC(Cn1ccnc1)(c1ccc(-c2ccccc2)cc1)c1ccc(-c2ccncc2)cc1 (centres undefined) | 3.86
17) CC(=O)c1ccc(C(O)(Cn2ccnc2)c2ccc(-c3ccncc3)cc2)cc1 (centres undefined) | 2.41
18) Cc1ccc(C(O)(Cn2ccnc2)c2ccc(-c3ccncc3)cc2)cc1 (centres undefined) | 3.13
19) OC(Cn1ccnc1)(c1ccc(F)cc1)c1cccc(Br)c1 (centres undefined) | 3.3
20) OC(CCc1ncc[nH]1)(c1ccc(F)cc1)c1ccc(F)cc1 | 3.13
21) OC(Cn1ccnc1)(c1ccc(F)cc1)c1ccc(-c2ccccn2)cc1 (centres undefined) | 3.58
22) COc1ccc(C(O)(Cn2ccnc2)c2ccc(-c3ccncc3)cc2)cc1 (centres undefined) | 3.55
23) OC(Cn1ccnc1)(c1ccc(F)cc1)c1ccc(-c2ccccc2)cc1 (centres undefined) | 4.23
24) OC(Cn1ccnc1)(c1ccc(F)cc1)c1ccc(-c2ccncc2)cc1 (centres undefined) | 2.47

----------
target: Polyunsaturated fatty acid 5-lipoxygenase (Rattus norvegicus); assay: Inhibitory activity against 5-lipoxygenase of RBL-1 cell line
Sequence (P12527 whole entry): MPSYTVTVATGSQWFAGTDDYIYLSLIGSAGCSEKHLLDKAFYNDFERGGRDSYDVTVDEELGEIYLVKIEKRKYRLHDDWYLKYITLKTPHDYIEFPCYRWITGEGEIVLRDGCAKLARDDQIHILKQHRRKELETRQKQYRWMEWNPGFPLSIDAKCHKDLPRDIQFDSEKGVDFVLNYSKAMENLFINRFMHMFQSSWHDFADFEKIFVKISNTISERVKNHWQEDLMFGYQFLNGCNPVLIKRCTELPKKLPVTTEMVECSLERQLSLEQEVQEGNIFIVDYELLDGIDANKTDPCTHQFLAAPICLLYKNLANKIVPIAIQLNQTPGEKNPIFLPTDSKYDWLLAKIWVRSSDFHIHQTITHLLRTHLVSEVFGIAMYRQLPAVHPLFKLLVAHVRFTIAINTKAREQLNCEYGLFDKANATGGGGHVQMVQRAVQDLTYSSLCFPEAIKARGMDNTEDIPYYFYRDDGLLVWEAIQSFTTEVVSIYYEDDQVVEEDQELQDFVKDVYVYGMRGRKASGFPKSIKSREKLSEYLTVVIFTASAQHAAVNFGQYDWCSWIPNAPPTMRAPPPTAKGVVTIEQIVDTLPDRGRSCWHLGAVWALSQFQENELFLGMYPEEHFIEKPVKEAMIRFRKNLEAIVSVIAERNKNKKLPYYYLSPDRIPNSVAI
MEASURE: IC50

1) COc1c(OC)c(OC(C)=O)c2cc(Cl)ccc2c1OC(C)=O [LONAPALENE] | 0.74 µM
2) COc1ccc2c(c1)c(CC(=O)O)c(C)n2C(=O)c1ccc(Cl)cc1 [INDOMETHACIN] | > 25 µM
3) Cc1ccc(C(O)(Cn2ccnc2)c2ccc(-c3ccncc3)cc2)cc1 (stereo not given) | > 25 µM
4) CC(=O)N1CCN(c2ccc(OCC3COC(Cn4ccnc4)(c4ccc(Cl)cc4Cl)O3)cc2)CC1 (stereo not given) [KETOCONAZOLE] | > 25 µM
5) OC(Cn1ccnc1)(c1ccc(F)cc1)c1ccc(-c2ccncc2)cc1 (stereo not given) | > 25 µM

----------
test: Partition coefficient (logP); assay type: physicochemical; conditions: octanol/water
Listing of recorded logP by entry.
MEASURE: logP

1. OC(Cn1ccnc1)(c1ccc(F)cc1)c1ccc(F)cc1 | 2.95
2. OC(Cn1ccnc1)(c1ccccc1)c1ccc(-c2ccncc2)cc1 (stereo unspecified) | 2.29
3. OC(Cn1ccnc1)(c1ccc(-c2cccnc2)cc1)c1ccc(F)cc1F (stereo unspecified) | 3.31
4. COc1ccc(C(O)(Cn2ccnc2)c2ccc(Br)cc2)cc1 (stereo unspecified) | 4.02
5. COC(C)(OC)c1ccc(C(O)(Cn2ccnc2)c2ccc(-c3ccncc3)cc2)cc1 (stereo unspecified) | 3.45
6. OC(Cn1cncn1)(c1ccc(F)cc1)c1ccc(-c2ccncc2)cc1 (stereo unspecified) | 1.67
